The measurements presented in this section are drawn from ChEMBL document CHEMBL1130280.

# Assayed Target: 5-hydroxytryptamine receptor 1D (Homo sapiens, UniProt P28221)
# Sequence (P28221 whole entry): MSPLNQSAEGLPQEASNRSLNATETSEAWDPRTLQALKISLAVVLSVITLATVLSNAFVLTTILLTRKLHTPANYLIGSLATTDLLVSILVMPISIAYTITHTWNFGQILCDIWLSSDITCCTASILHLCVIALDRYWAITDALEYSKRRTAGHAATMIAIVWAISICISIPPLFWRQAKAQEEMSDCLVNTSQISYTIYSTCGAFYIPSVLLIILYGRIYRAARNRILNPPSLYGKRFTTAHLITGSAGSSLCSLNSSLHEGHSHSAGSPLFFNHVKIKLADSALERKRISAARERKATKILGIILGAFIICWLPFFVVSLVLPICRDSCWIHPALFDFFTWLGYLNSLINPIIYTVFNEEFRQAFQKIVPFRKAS
# Protocol Text: Compound was tested for its agonist activity against human 5-hydroxytryptamine 1D receptor alpha for comparison purpose.
# Format: functional
Property Name: Ki (nM)
Give bare numbers, in nM.

Please report Ki for the following compound: CNCCOc1cccc2ccccc12 34

###

# Assayed Target: 5-hydroxytryptamine receptor 1B (Homo sapiens)
# Sequence (P28222 whole entry): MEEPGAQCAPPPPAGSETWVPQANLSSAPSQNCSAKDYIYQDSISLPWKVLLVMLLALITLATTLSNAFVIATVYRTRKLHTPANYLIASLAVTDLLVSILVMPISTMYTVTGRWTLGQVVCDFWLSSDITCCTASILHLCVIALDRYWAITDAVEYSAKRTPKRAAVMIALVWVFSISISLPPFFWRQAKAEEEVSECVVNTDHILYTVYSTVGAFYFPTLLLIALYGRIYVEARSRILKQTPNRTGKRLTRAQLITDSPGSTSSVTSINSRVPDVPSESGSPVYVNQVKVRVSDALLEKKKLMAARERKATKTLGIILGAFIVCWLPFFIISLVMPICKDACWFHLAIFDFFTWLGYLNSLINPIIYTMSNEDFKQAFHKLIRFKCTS
# Protocol Text: Agonist activity to the human recombinant 5-hydroxytryptamine 1B receptor
Property Name: Ki (nM)
Numbers only, in nM.

The examples below pair each entry with its known result.
CC(C)NCC(O)COc1cccc2[nH]ccc12 (single isomer, unassigned; (-)) [PINDOLOL]; 2600
CCCN(C)CCOc1cccc2ccccc12; 750
CNCCOc1ccccc1; 5960
CN(C)CCCCOc1cccc2ccccc12; 470
CNCCOc1cccc(C)c1C; 316
CNCCCOc1ccccc1; 3450
CN(C)CCOc1cccc2ccccc12; 94
NCCCOc1cccc2ccccc12; 290
CCCNCCOc1cccc2ccccc12; 200
CC(C)NCCCOc1cccc2ccccc12; 7660

Provide each entry's Ki from the list below.
1. CCCN(C)CCOc1ccccc1C1CCCC1
2. CNCCOc1cccc2ccccc12

1: 425; 2: 26

Provide each entry's Ki from the list below.
1. OCCNCCOc1cccc2ccccc12
2. CCCCN(CCCC)CCOc1cccc2ccccc12
3. CCCN(C)CCCOc1ccccc1C1CCCC1
4. NCCOc1cccc2ccccc12
5. CCNCCOc1cccc2ccccc12
6. CN(CCOc1cccc2ccccc12)Cc1ccccc1
7. CN(C)CCCOc1cccc2ccccc12
8. CC(C)NCCOc1cccc2ccccc12

[107, 2680, 1200, 100, 66, 260, 255, 120]

Provide each entry's Ki from the list below.
1. CCCCN(CC)CCOc1cccc2ccccc12
2. CC(C)NCCOc1cccc2[nH]ccc12

1: 1230; 2: 1120
